- System name: Angiotensin II receptor (AT-1) type-1 (Rattus norvegicus, UniProt P29089+P25095)
- Test details: Binding against Angiotensin II receptor in a radioligand binding assay using [125I]-Sar1-Ile8 angiotensin-II as radioligand in rat adrenal cortical membranes
- Type: cell membranes
Would you kindly list Ki for each of these molecules?
Provide only the numeric value, understood in nM.

(Q) // lookup Ki for CCCSC1=NS(=O)(=O)c2ccccc2N1Cc1ccc(-c2ccccc2-c2nn[nH]n2)cc1
(A) 4.8

(Q) How about CCCSC1=NS(=O)(=O)c2ccc(C(=O)O)cc2N1Cc1ccc(-c2ccccc2-c2nn[nH]n2)cc1 ?
(A) 8.5

(Q) How about CCCSC1=Nc2ccccc2S(=O)(=O)N1Cc1ccc(-c2ccccc2-c2nn[nH]n2)cc1 ?
(A) 57

(Q) How about CCCCC1=Nc2ccccc2S(=O)(=O)N1Cc1ccc(-c2ccccc2C(=O)O)cc1 ?
(A) 230

(Q) How about CCSC1=NS(=O)(=O)c2cc(C)cnc2N1Cc1ccc(-c2ccccc2-c2nn[nH]n2)cc1 ?
(A) 0.8

(Q) How about CCCSC1=NS(=O)(=O)c2ccccc2N1Cc1ccc(-c2ccccc2C(=O)O)cc1 ?
(A) 180

(Q) How about CCCSC1=NS(=O)(=O)c2cc(C)cnc2N1Cc1ccc(-c2ccccc2-c2nn[nH]n2)cc1 ?
(A) 0.6

(Q) How about CCCSC1=Nc2ccccc2S(=O)(=O)N1Cc1ccc(-c2ccccc2C(=O)O)cc1 ?
(A) 4900

(Q) How about CCCCC1=NS(=O)(=O)c2ccccc2N1Cc1ccc(-c2ccccc2C(=O)O)cc1 ?
(A) 550
